Cited source: paper PMC10127133

molecular target: T1, FimH lectin domain (residues Phe1-Thr158) (Escherichia coli, UniProt P08191 22-179); test: SPR; single-cycle kinetics on BIAcore T200; ω1-glycoprotein immobilised on a CM5 chip via primary amino groups (EDC/NHS); FimH as analyte at 14.4, 7.17, 3.60, 1.80, 0.9 μM; 20 mM Hepes, 150 mM NaCl, 0.005% Tween; 30 μl/min; 298 K; fit to the Langmuir 1:1 model; settings: both partners purified
T1 construct: FimH type-1 fimbrial adhesin of Escherichia coli, lectin domain, residues Phe1-Thr158; No tag is mentioned; also called FimH adhesin; source: E. coli C43(DE3), pET24a vector, purified (sulfopropyl fast flow cation exchange chromatography)
T1 sequence (P08191 22-179): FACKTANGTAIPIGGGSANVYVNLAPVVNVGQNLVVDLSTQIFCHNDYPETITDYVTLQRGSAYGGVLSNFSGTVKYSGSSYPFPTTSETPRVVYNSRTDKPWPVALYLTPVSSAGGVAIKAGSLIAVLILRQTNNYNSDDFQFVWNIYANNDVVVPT
pKd: −log10 of the molar value.
Entries and their pKd
attribute-measured: pKd

{"binder": "omega-1 (ω1) glycoprotein carrying Man3Gn2F1[6] (natural protein, N-glycans Man3Gn2F1[6] (α1,6 core-fucosylated oligomannose-3); sites not stated) QNRWDYYVFSVTWPPTYCESIQCRLPRGLRDFTIHGLWPTIFPNRQPNCTGSLRFDIRRLQGIRNELDLMWPHLKNYRESPSFWKHEFEKHGLCAVEDPQVFNQYGYFKFGIKLMQKLNLLKTLMKYKISPHDSRQYDTINLMNVLEREFGYNGSANCIRKPGRRGMYHLEEVHVCLNRKHEFMNCPFLGNCPKKFIFPPFQ", "attribute-measured": "pKd", "recorded-result": 6.87}
{"binder": "omega-1 (ω1) glycoprotein carrying Man3Gn2F1[3] (natural protein, N-glycans Man3Gn2F1[3] (α1,3 core-fucosylated oligomannose-3); sites not stated) QNRWDYYVFSVTWPPTYCESIQCRLPRGLRDFTIHGLWPTIFPNRQPNCTGSLRFDIRRLQGIRNELDLMWPHLKNYRESPSFWKHEFEKHGLCAVEDPQVFNQYGYFKFGIKLMQKLNLLKTLMKYKISPHDSRQYDTINLMNVLEREFGYNGSANCIRKPGRRGMYHLEEVHVCLNRKHEFMNCPFLGNCPKKFIFPPFQ", "attribute-measured": "pKd", "recorded-result": 6.89}
{"binder": "omega-1 (ω1) glycoprotein carrying Man3Gn2 (natural protein, N-glycans Man3Gn2 (oligomannose-3, paucimannosidic); sites not stated) QNRWDYYVFSVTWPPTYCESIQCRLPRGLRDFTIHGLWPTIFPNRQPNCTGSLRFDIRRLQGIRNELDLMWPHLKNYRESPSFWKHEFEKHGLCAVEDPQVFNQYGYFKFGIKLMQKLNLLKTLMKYKISPHDSRQYDTINLMNVLEREFGYNGSANCIRKPGRRGMYHLEEVHVCLNRKHEFMNCPFLGNCPKKFIFPPFQ", "attribute-measured": "pKd", "recorded-result": 7.47}
{"binder": "omega-1 (ω1) glycoprotein carrying X1Man3Gn2F1[3] (natural protein, N-glycans X1Man3Gn2F1[3] (oligomannose-3 with β1,2-xylose on mannose 3 and α1,3 core fucose); sites not stated) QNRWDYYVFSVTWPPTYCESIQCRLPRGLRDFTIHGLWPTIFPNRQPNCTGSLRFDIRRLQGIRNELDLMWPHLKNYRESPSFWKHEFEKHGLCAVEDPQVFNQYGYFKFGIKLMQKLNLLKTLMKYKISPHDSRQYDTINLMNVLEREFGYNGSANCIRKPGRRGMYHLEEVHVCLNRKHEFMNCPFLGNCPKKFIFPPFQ", "attribute-measured": "pKd", "recorded-result": 5.22}
